# measured.target: rat NK1 (rNK1) receptor (Rattus norvegicus, UniProt P14600)
# Construct: expressed in transfected cells; host or cells: CHO (rNK-1/CHO cell line from Dr. James Krause)
# Sequence (P14600 whole entry): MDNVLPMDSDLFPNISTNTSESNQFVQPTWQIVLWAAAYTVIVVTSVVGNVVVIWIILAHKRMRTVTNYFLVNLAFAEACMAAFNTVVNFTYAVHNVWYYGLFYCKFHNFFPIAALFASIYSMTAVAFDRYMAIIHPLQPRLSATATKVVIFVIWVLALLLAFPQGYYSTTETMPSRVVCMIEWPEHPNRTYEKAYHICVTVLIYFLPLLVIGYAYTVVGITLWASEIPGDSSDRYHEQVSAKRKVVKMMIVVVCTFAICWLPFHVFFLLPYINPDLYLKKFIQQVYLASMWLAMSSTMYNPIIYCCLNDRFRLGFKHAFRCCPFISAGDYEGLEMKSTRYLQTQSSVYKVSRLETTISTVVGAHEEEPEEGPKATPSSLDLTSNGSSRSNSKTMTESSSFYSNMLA
# experiment: Radioligand competition binding, [3H]substance P, rNK1/CHO membranes
# recorded.conditions: LogIC50, rNK1, [3H]Substance P, Table 20; logarithm of IC50 (negative); CHO cell membranes
Peptide text beside a SMILES is read from it.
quantity.measured: IC50 (nM)
API: value field is a number in nM; no unit string.

Entry CCCC[C@@H]1NC(=O)[C@H](Cc2ccccc2)NC(=O)CNC(=O)[C@H](NC(=O)[C@@H](N)Cc2ccc(O)cc2)CSSC[C@@H](C(=O)N[C@@H](Cc2c[nH]c3ccccc23)C(=O)NCc2cc(C(F)(F)F)cc(C(F)(F)F)c2)NC(=O)[C@@H]2CCCN2C1=O [TY035, [D-Cys^2, Cys^7]TY027] (HELM PEPTIDE1{Y.[dC].G.F.[Nle].P.C.W.[FC(F)(F)c1cc(CN[*:1])cc(C(F)(F)F)c1]}$PEPTIDE1,PEPTIDE1,2:R3-7:R3$$$V2.0; N-terminus assumed) , IC50 reported as 100

---

Examples of compounds with documented Emax follow.
# measured.target: human δ opioid receptors (hDOR) (Homo sapiens)
# Construct: expressed in transfected cells; host or cells: HN9.10 neuroblastoma cell line, pCDNA3, neomycin-selected clones
# Sequence (P41143 whole entry): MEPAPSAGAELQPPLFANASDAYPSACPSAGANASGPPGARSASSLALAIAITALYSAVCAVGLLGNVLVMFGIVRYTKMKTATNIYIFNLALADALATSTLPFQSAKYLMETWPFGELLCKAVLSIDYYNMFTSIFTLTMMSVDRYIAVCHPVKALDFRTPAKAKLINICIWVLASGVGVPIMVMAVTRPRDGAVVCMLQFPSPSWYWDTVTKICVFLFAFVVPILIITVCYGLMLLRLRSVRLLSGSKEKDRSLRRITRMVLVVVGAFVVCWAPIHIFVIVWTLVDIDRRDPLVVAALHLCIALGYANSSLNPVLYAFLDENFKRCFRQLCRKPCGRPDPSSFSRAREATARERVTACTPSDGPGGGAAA
# experiment: [35S]GTP-γ-S binding assay, hDOR
# Format: biochemical
# recorded.conditions: read-out: GTP binding hDOR Emax (%)
Give the number; % is assumed, so skip it.

Examples with their reported Emax follow.
CC(C)C[C@H](NC(=O)[C@@H]1CCCN1C(=O)[C@@H](Cc1ccccc1)NC(=O)[C@H](Cc1ccccc1)NC(=O)CNC(=O)[C@@H](C)NC(=O)[C@@H](N)Cc1ccc(O)cc1)C(=O)N[C@@H](Cc1c[nH]c2ccccc12)C(=O)OCc1cc(C(F)(F)F)cc(C(F)(F)F)c1 [TY007] :: 22.9
CC(C)C[C@H](NC(=O)[C@@H]1CCCN1C(=O)[C@H]1NC(=O)[C@H](Cc2ccccc2)NC(=O)CNC(=O)[C@H](NC(=O)[C@@H](N)Cc2ccc(O)cc2)C(C)(C)SSC1(C)C)C(=O)N[C@@H](Cc1c[nH]c2ccccc12)C(=O)NCc1cc(C(F)(F)F)cc(C(F)(F)F)c1 [TY046] :: 15

Entry CC(C)C[C@H](NC(=O)[C@@H]1CCCN1C(=O)C(COC1OC(CO)C(O)C(O)C1O)NC(=O)[C@H](Cc1ccccc1)NC(=O)CNC(=O)[C@@H](C)NC(=O)[C@@H](N)Cc1ccc(O)cc1)C(=O)N[C@@H](Cc1c[nH]c2ccccc12)C(=O)NCc1cc(C(F)(F)F)cc(C(F)(F)F)c1 (stereo partly drawn) [TY042] , Emax reported as 47

---

Known pIC50 of a selection of compounds
# measured.target: δ opioid receptors (MVD) (Mus musculus, UniProt P32300)
# Construct: from tissue; host or cells: mouse (ICR) isolated vas deferens
# Sequence (P32300 whole entry): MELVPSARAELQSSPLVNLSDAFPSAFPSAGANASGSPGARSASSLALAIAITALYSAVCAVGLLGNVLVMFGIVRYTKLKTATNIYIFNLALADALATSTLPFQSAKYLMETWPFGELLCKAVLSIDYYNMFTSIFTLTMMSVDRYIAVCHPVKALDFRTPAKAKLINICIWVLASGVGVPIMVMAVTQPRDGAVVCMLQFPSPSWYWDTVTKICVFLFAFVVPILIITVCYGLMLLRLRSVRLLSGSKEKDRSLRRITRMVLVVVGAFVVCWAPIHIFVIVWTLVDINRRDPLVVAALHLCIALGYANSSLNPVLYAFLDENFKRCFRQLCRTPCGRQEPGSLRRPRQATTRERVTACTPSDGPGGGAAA
# experiment: Mouse isolated vas deferens (MVD) assay, opioid agonist
Square brackets hold non-standard residues; d marks the D form. Peptide text beside a SMILES is read from it. * marks the point of attachment. NH(3,5-(CF3)2-benzyl) = FC(F)(F)c1cc(CN*)cc(C(F)(F)F)c1; X1 = OC[C@H]1OC(*)[C@H](O)[C@@H](O)[C@@H]1O; Dmt = Cc1cc(O)cc(C)c1C[C@H](N)C(=O)O; Nle = CCCC[C@H](N)C(=O)O
Reminder that pIC50 means the negative base-10 logarithm of the concentration expressed in mol/L.

Please review the entries below; each comes with its answer.
CSCC[C@H](NC(=O)[C@H](Cc1ccccc1)NC(=O)CNC(=O)[C@@H](C)NC(=O)[C@@H](N)Cc1c(C)cc(O)cc1C)C(=O)N1CCC[C@H]1C(=O)N[C@@H](CC(C)C)C(=O)N[C@@H](Cc1c[nH]c2ccccc12)C(=O)OCc1cc(C(F)(F)F)cc(C(F)(F)F)c1 [TY033] :: 8.90
CCCC[C@H](NC(=O)[C@H](Cc1ccccc1)NC(=O)CNC(=O)[C@@H](C)NC(=O)[C@@H](N)Cc1c(C)cc(O)cc1C)C(=O)N1CCC[C@H]1C(=O)N[C@@H](COC1O[C@H](CO)[C@@H](O)[C@H](O)[C@H]1O)C(=O)N[C@@H](Cc1c[nH]c2ccccc12)C(=O)NCc1cc(C(F)(F)F)cc(C(F)(F)F)c1 (stereo partly drawn) [TY056] (H-[Dmt][dA]GF[Nle]PS(X1)W-{NH(3,5-(CF3)2-benzyl)}; N-terminus assumed) :: 8.44

Here's the next entry for you.
Note to self: pIC50 recorded for CSCC[C@H](NC(=O)[C@H](Cc1ccccc1)NC(=O)CNC(=O)[C@@H](C)NC(=O)[C@@H](N)Cc1ccc(O)cc1)C(=O)N1CCC[C@H]1C(=O)N[C@@H](CC(C)C)C(=O)N[C@@H](Cc1c[nH]c2ccccc12)C(=O)N(C)Cc1ccccc1 [TY026] was 8.10

---

# experiment: In vitro stability in rat plasma at 37° C.
# Assay type: in vitro ADME
# recorded.conditions: rat, rat plasma, FIG. 47, read-out: T1/2 in rat plasma
Bridge positions count the residues as written; N and C are the ends. Square brackets hold non-standard residues; d marks the D form. Peptide text beside a SMILES is read from it. * marks the point of attachment. NH(3,5-(CF3)2-benzyl) = FC(F)(F)c1cc(CN*)cc(C(F)(F)F)c1; dPen = CC(C)(S)[C@@H](N)C(=O)O; Nle = CCCC[C@H](N)C(=O)O
Measured half-life at 50 μg/mL of individual entries

Worked set:
CCCC[C@@H]1NC(=O)[C@H](Cc2ccccc2)NC(=O)CNC(=O)[C@H](NC(=O)[C@@H](N)Cc2ccc(O)cc2)C(C)(C)SSC(C)(C)[C@@H](C(=O)N[C@@H](Cc2c[nH]c3ccccc23)C(=O)NCc2cc(C(F)(F)F)cc(C(F)(F)F)c2)NC(=O)[C@@H]2CCCN2C1=O [TY047] (HELM PEPTIDE1{Y.[CC(C)(S[*:3])[C@@H](N[*:1])C(=O)[*:2]].G.F.[Nle].P.[Pen].W.[FC(F)(F)c1cc(CN[*:1])cc(C(F)(F)F)c1]}$PEPTIDE1,PEPTIDE1,2:R3-7:R3$$$V2.0; N-terminus assumed) :: > 24 h
CC(C)C[C@H](NC(=O)[C@@H]1CCCN1C(=O)[C@@H]1NC(=O)[C@H](Cc2ccccc2)NC(=O)CNC(=O)[C@H](NC(=O)[C@@H](N)Cc2ccc(O)cc2)C(C)(C)SSC1(C)C)C(=O)N[C@@H](Cc1c[nH]c2ccccc12)C(=O)NCc1cc(C(F)(F)F)cc(C(F)(F)F)c1 :: > 24 h

Pending compound:
The reported value for CCCC[C@@H]1NC(=O)[C@H](Cc2ccccc2)NC(=O)CNC(=O)[C@H](NC(=O)[C@@H](N)Cc2ccc(O)cc2)C(C)(C)SSC(C)(C)[C@H](C(=O)N[C@@H](Cc2c[nH]c3ccccc23)C(=O)NCc2cc(C(F)(F)F)cc(C(F)(F)F)c2)NC(=O)[C@@H]2CCCN2C1=O [TY048] (H-Y[dPen]GF[Nle]P[dPen]W-{NH(3,5-(CF3)2-benzyl)}; disulfide 2-7; N-terminus assumed) in terms of half-life at 50 μg/mL is > 24 h

---

# measured.target: human δ opioid receptors (hDOR) (Homo sapiens)
# Construct: expressed in transfected cells; host or cells: HN9.10 neuroblastoma cell line, pCDNA3, neomycin-selected clones
# experiment: [35S]GTP-γ-S binding assay, hDOR
# Assay type: biochemical
# recorded.conditions: Table 27; read-out: GTP binding hDOR EC50
Peptide text beside a SMILES is read from it.
quantity.measured: EC50 (nM)
Express the result in nM but write the number alone.

Here are 3 molecules together with their reported answers.
CC(C)C[C@H](NC(=O)[C@@H]1CCCN1C(=O)CNC(=O)[C@H](Cc1ccccc1)NC(=O)CNC(=O)[C@@H](C)NC(=O)[C@@H](N)Cc1ccc(O)cc1)C(=O)N[C@@H](Cc1c[nH]c2ccccc12)C(=O)OCc1cc(C(F)(F)F)cc(C(F)(F)F)c1 [TY006] (HELM PEPTIDE1{Y.[dA].G.F.G.P.L.W.[FC(F)(F)c1cc(CO[*:1])cc(C(F)(F)F)c1]}$$$$V2.0) :: 50.2
CCCC[C@H](NC(=O)[C@H](Cc1ccccc1)NC(=O)CNC(=O)[C@@H](C)NC(=O)[C@@H](N)Cc1ccc(O)cc1)C(=O)N1CCC[C@H]1C(=O)N[C@@H](CC(C)C)C(=O)N[C@@H](Cc1c[nH]c2ccccc12)C(=O)OCc1cc(C(F)(F)F)cc(C(F)(F)F)c1 [TY018] :: 4
CC(C)C[C@H](NC(=O)[C@@H]1CCCN1C(=O)[C@H](CC[S+](C)[O-])NC(=O)[C@H](Cc1ccccc1)NC(=O)CNC(=O)[C@@H](C)NC(=O)[C@@H](N)Cc1ccc(O)cc1)C(=O)N[C@@H](Cc1c[nH]c2ccccc12)C(=O)OCc1cc(C(F)(F)F)cc(C(F)(F)F)c1 (stereo partly shown) [TY023] :: 1.8

Note: attention shifts to another entry.
Lookup result for CC(C)C[C@H](NC(=O)[C@@H]1CCCN1C(=O)[C@H](CC(C)C)NC(=O)[C@H](Cc1ccccc1)NC(=O)CNC(=O)[C@@H](C)NC(=O)[C@@H](N)Cc1ccc(O)cc1)C(=O)N[C@@H](Cc1c[nH]c2ccccc12)C(=O)OCc1cc(C(F)(F)F)cc(C(F)(F)F)c1 [TY004] ; measured EC50: 9.6
